test: Inhibition of Saccharomyces cerevisiae alpha-glucosidase using p-nitrophenyl-alpha-D-glucopyranoside as substrate preincubated for 10 mins followed by substrate addition measured after 30 mins by microplate reader analysis
measureName: IC50 (µM)

INSERT INTO assay_data (mol, valueunit, result) VALUES
  ('O=c1c(O)c(-c2cc(O)c(OCCO)c(O)c2)oc2cc(O)cc(O)c12', 'µM', 84.5),
  ('O=c1c(O)c(-c2cc(O)c(OCCOCCOCCO)c(O)c2)oc2cc(O)cc(O)c12', 'µM', 233),
  ('O=c1c(O)c(-c2cc(O)c(OCCN(CCO)c3ccccc3)c(O)c2)oc2cc(O)cc(O)c12', 'µM', 41.1);
